Cited source: patent US7112584B2

Target: GR (MMTV promoter) (Homo sapiens)
Sequence (P04150 1-777): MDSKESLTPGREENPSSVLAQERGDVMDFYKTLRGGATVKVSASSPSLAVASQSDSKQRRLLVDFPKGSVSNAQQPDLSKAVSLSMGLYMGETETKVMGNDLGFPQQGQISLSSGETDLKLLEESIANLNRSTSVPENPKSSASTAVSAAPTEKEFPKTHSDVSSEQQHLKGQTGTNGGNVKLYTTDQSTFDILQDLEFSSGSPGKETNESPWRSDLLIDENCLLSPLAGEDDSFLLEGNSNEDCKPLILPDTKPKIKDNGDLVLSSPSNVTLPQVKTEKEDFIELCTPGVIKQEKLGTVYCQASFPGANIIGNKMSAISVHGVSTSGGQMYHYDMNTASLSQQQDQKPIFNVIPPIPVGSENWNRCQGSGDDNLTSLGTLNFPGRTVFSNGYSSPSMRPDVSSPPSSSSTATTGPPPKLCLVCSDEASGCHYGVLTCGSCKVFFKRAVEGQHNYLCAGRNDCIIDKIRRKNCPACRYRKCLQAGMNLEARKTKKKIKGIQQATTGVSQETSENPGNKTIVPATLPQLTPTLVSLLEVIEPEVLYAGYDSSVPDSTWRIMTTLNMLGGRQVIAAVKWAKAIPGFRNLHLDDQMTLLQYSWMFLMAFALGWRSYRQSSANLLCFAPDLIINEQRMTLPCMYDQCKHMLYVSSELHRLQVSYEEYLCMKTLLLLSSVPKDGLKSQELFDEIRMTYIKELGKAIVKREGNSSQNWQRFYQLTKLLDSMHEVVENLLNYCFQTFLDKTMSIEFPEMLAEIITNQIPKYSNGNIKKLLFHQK
Assay: reporter gene test in HeLa cells, transactivation, MMTV promoter-luciferase
measurement.type: EC50 (µM)

Use the examples below as a reference point.
Cc1noc(=O)c2ccc(NC(=O)C(O)(CC3(c4cccc(F)c4O)CCC3)C(F)(F)F)cc12 (single isomer, unassigned); 0.049
Cc1noc(=O)c2ccc(NC(=O)C(O)(CC3(c4cc(F)ccc4O)CCC3)C(F)(F)F)cc12 (single isomer, unassigned); 0.013

(1) Cc1noc(=O)c2ccc(NC(=O)C(O)(CC(C)(C)c3cccc4c3OCO4)C(F)(F)F)cc12 (single isomer, unassigned; (+))
(2) CCc1noc(=O)c2ccc(NC(=O)C(O)(CC(C)(C)c3cccc4ccoc34)C(F)(F)F)cc12 (single isomer, unassigned; (+))
Query block: Between these two entries, 1 and 2 , state which has the higher EC50. Kindly give the label for the entry you pick.
Result block: 2
(2: 0.05 µM, 1: 0.011 µM)

* * *

Measured pIC50 values are reported for all entries that follow.
Molecular target: GR (IL-6 promoter) (Homo sapiens, UniProt P04150)
Sequence (P04150 1-777): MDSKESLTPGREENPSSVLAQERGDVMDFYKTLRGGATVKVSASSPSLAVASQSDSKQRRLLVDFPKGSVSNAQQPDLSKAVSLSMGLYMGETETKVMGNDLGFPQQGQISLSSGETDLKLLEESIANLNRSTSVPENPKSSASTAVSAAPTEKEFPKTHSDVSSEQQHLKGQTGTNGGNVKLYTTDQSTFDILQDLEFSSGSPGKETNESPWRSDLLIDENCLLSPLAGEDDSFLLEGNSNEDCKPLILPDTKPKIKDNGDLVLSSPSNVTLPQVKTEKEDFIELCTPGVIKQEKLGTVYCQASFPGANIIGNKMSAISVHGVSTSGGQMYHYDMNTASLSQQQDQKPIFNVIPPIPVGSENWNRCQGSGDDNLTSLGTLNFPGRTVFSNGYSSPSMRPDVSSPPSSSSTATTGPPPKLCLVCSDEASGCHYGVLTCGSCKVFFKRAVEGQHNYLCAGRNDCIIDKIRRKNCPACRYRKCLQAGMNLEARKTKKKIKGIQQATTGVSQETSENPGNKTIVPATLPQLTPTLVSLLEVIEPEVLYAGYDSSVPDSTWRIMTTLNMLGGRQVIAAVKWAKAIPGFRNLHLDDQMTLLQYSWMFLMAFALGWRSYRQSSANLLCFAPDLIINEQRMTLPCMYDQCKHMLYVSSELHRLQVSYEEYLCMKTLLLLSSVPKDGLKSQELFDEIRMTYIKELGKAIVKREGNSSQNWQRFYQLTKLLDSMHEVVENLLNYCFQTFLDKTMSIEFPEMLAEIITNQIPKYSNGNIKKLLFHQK
Assay: reporter gene test in HeLa cells, transrepression, IL-6 promoter-luciferase
Details: read-out: Transrepression (TR)(IL-6-Promoter) IC50; HeLa cells, TPA-induced, luciferase
To interpret pIC50, take it as minus log10 of a concentration measured in moles per litre.

Cc1noc(=O)c2ccc(NC(=O)C(O)(CC3(c4cccc5c4OCC5)CCC3)C(F)(F)F)cc12 (racemic) [Example 14]; 8.38
CCc1noc(=O)c2ccc(NC(=O)C(O)(CC3(c4cccc5c4OCC5)CCC3)C(F)(F)F)cc12 (single isomer, unassigned); 8.34
Cc1noc(=O)c2ccc(NC(=O)C(O)(CC(C)(C)c3cccc4ccoc34)C(F)(F)F)cc12 (single isomer, unassigned); 8.80

Query block: Please report the measured pIC50 for Cc1noc(=O)c2ccc(NC(=O)C(O)(CC3(c4cccc5c4OCC5)CCC3)C(F)(F)F)cc12 (single isomer, unassigned) [Example 15]
Result block: 8.82

Query block: Consider the compound Cc1noc(=O)c2ccc(NC(=O)C(O)(CC3(c4cccc5c4OCO5)CC3)C(F)(F)F)cc12 (single isomer, unassigned; (+)) and give its recorded pIC50.
Result block: 8.82

* * *

biological target: GR (IL-6 promoter) (Homo sapiens, UniProt P04150); test: reporter gene test in HeLa cells, transrepression, IL-6 promoter-luciferase
measurement.type: IC50 (nM)

Before answering, review these 2 worked examples.
Cc1noc(=O)c2ccc(NC(=O)C(O)(CC(C)(C)c3cccc4c3OCO4)C(F)(F)F)cc12 (single isomer, unassigned; (+)) [Example 2]; 0.92
COc1c(F)cccc1C1(CC(O)(C(=O)Nc2ccc3c(=O)onc(C)c3c2)C(F)(F)F)CCC1 (racemic) [Example 31]; 5.4

(a) Cc1noc(=O)c2ccc(NC(=O)C(O)(CC(C)(C)c3cccc4c3OCO4)C(F)(F)F)cc12 (racemic) [Example 1]
(b) Cc1noc(=O)c2ccc(NC(=O)C(O)(CC(C)(C)c3cc(F)cc4c3OCO4)C(F)(F)F)cc12 (single isomer, unassigned) [Example 19]
Query block: Short answer wanted: higher IC50, a or b ? Let me know the label of the one you choose.
Result block: b
(b: 3.8 nM, a: 2 nM)

* * *

Biological target: GR (collagenase promoter) (Homo sapiens, UniProt P04150)
Construct: endogenous in cells
Sequence (P04150 1-777): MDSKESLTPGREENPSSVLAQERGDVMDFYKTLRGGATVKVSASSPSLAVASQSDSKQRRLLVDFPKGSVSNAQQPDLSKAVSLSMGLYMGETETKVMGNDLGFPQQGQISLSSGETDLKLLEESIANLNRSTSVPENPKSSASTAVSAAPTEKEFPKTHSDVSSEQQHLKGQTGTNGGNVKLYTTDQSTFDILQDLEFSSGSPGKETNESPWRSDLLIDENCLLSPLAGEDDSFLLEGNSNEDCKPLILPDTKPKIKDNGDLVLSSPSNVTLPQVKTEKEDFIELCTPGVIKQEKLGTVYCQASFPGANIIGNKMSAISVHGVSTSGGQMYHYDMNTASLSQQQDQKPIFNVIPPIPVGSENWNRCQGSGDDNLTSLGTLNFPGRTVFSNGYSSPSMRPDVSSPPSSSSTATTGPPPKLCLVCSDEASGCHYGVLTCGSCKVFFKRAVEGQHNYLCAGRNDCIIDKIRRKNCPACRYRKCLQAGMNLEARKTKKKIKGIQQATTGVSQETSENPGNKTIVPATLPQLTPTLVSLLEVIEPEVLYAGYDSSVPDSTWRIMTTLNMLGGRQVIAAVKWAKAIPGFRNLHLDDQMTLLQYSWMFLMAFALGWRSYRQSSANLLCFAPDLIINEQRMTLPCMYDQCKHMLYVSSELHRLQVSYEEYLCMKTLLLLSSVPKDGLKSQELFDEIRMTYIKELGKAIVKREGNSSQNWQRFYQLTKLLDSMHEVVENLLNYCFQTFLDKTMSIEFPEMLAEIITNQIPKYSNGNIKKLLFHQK
Experiment: reporter gene test in HeLa cells, transrepression, collagenase promoter-luciferase
Conditions: TPA-induced, read-out: Transrepression (TR)(Collagenase Promoter) IC50
pIC50: −log10 of the molar value.
measurement.type: pIC50

Cc1noc(=O)c2ccc(NC(=O)C(O)(CC3(c4cc(F)ccc4O)CCC3)C(F)(F)F)cc12 (single isomer, unassigned) [Example 29]; 8.47
Cc1noc(=O)c2ccc(NC(=O)C(O)(CC(C)(C)c3cccc4ccoc34)C(F)(F)F)cc12 (single isomer, unassigned) [Example 23]; 8.31
Cc1noc(=O)c2ccc(NC(=O)C(O)(CC(C)(C)c3cccc4c3OCO4)C(F)(F)F)cc12 (single isomer, unassigned; (+)) [Example 2]; 8.43
